- ASSAYED SYSTEM: T1, eukaryotically produced human IL-6 (human, UniProt P05231 30-212)
- T1 construct: also called eukIL-6; Euk IL-6
- EXPERIMENT SUMMARY: SPR; periplasmic fraction
Items are presented alongside their recorded kon.
Supply the numeric figure in M⁻¹ s⁻¹, leaving out any unit text.

Some solved cases for reference:
{"columns": ["BINDER", "UNITS LABEL", "VALUE REPORTED"],
 "data": [
  ["Fab 47C2 (Fab, V domains shown, VL-shuffled Fab of 29B11, periplasmic fraction; also called 47C2 (R4)) VH: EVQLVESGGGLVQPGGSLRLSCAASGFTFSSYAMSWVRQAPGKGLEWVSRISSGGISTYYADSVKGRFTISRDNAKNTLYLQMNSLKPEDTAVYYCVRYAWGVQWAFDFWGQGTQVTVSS VL: LSYDLTQPPSVSGSPGKTVTISCAGTSSDVGYGNYVSWYQQLPGMAPKILIYDVNKRASGIADRFSGSKSGNTASLTISGLQSEDEADYYCASYRRGETIVFGGGTHLTVLG", "M⁻¹ s⁻¹", 849000],
  ["Fab 29B11 (Fab, V domains shown, Fab) VH: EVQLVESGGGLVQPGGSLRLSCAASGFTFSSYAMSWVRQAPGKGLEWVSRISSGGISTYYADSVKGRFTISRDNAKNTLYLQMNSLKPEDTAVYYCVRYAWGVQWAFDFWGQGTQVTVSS VL: QSVLTQPPSVSGSPGQTVTISCAGTSEDVGYGNYVSWYQQLPGMAPKLLIYDVNKRASGIADRFSGSKSGNTASLTISGLQSEDEADYYCASYRRTIDNIFGGGTHLTVLG", "M⁻¹ s⁻¹", 187000]
]}

Moving on to another binder below.
For the binder shown here, Fab 55C1 (Fab, V domains shown, VL-shuffled Fab of 29B11, periplasmic fraction; also called 55C1a) VH: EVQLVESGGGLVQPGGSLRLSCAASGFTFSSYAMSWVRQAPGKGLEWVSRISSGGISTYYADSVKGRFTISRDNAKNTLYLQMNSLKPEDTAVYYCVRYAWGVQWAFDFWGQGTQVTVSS VL: LNFMLTQPPSVSGSPGKTVTISCAGTSSDVGYGNYVSWYQQLPGTAPKLLIYNVNKRASGITDRFSGSKSGNTASLTISGLQSEDEADYYCASYRTGDNAAFGGGTKLTVLG , give the reported kon.
440000
